Reference for the values: paper PMC9290507

Molecular target: VIM‐2 (Escherichia coli)
Construct: made in house
Experiment: Kd determination using isothermal titration calorimetry
Format: binding
Conditions: ITC, 250 μM compound into 50 μM VIM-2, 25 °C; inset of Figure 6
reported metric: pKd
Please report pKd as the negative decimal logarithm of the molar concentration, giving only the number.

Any idea what its pKd is? The molecule is O=C1CCCC1SCCCS (stereo not drawn)
6.06

Any idea what its pKd is? The molecule is O=C1C(SCCCS)CCN1c1nccs1 (stereo not drawn)
6.78

Any idea what its pKd is? The molecule is O=C1C(SCCCS)CCN1c1ccccc1 (stereo not drawn)
6.27

###

Answer each item with its documented IC50.
Biological target: VIM‐1 (Pseudomonas aeruginosa)
Experiment: Fluorescence-based enzyme activity assay (Fluorocillin), VIM-1
Your answer should be a plain number; it is taken to be in µM.

Any idea what its IC50 is? The compound is O=C1C(SCCS)CCN1c1cccc(C(F)(F)F)c1 (stereo not drawn)
0.22

Any idea what its IC50 is? The compound is CN(C(=O)CSCCS)[C@H]1CCCC[C@@H]1O (relative stereo)
0.33

Any idea what its IC50 is? The compound is O=C(CSCCS)c1ccc(Cl)cc1
0.23

Any idea what its IC50 is? The compound is O=C1C(SCCCS)CCN1c1cccc(C(F)(F)F)c1 (stereo not drawn)
0.07

Any idea what its IC50 is? The compound is O=C(CSCCCS)c1ccc(F)cc1
0.23

Any idea what its IC50 is? The compound is Cc1ccc(S(=O)(=O)N2CCN(C(=O)CSCCS)CC2)cc1
0.4

Any idea what its IC50 is? The compound is O=C1C(SCCCS)CCN1c1ccccc1 (stereo not drawn)
0.02

Any idea what its IC50 is? The compound is CCOC(=O)C(SCCCS)c1ccc([N+](=O)[O-])cc1 (stereo not drawn)
0.73

Any idea what its IC50 is? The compound is O=C1C(SCCCS)CCN1c1nccs1 (stereo not drawn)
0.04

Any idea what its IC50 is? The compound is Cc1ccc(C(=O)CSCCS)cc1
0.22

Any idea what its IC50 is? The compound is COc1ccc(C(=O)CSCCCS)cc1
0.14

Any idea what its IC50 is? The compound is Cc1ccc(C(=O)CSCCCS)cc1
0.07

###

Target: VIM‐1 (Pseudomonas aeruginosa, UniProt A0A0F7KYQ8)
Experiment: Fluorescence-based enzyme activity assay (Fluorocillin), VIM-1
pIC50: −log10 of the molar value.
Decide by pIC50: equal to or exceeding 7 means t, less means f.

Threshold query (pIC50 >= 7) on COC(=O)C(SCCS)c1ccc(Cl)cc1 (stereo not drawn)
f

Threshold query (pIC50 >= 7) on CCOC(=O)C(SCCS)c1ccc([N+](=O)[O-])cc1 (stereo not drawn)
f

Threshold query (pIC50 >= 7) on O=C1OCCC1SCCS (stereo not drawn)
f

Threshold query (pIC50 >= 7) on COC(=O)CC(SCCCS)C(=O)OC (stereo not drawn)
t

Threshold query (pIC50 >= 7) on O=C1CCCC1SCCCS (stereo not drawn)
f

Threshold query (pIC50 >= 7) on O=C1C(SCCS)CCN1c1nccs1 (stereo not drawn)
t

Threshold query (pIC50 >= 7) on O=C(CSCCCS)N1CCN(Cc2ccc(Cl)cc2)CC1
f

Threshold query (pIC50 >= 7) on COc1ccc(C(=O)CSCCS)cc1
f

Threshold query (pIC50 >= 7) on CN1CCC(SCCCS)C1=O (stereo not drawn)
f
